Value source: the NIST ThermoML archive (doi:10.1016/j.jct.2016.07.017)

experiment-notes: activity coefficient (dimensionless); of the first substance listed, at infinite dilution; xn = mol fraction of the nth substance listed
run-conditions: 318.15 K; 101.33 kPa; Liquid; Chromatography; x1 = 0
Note to self: use 1 (yes) only for activity coefficient readings below 6; a reading exactly at 6 still gets 0 (no).

[[record]]
compound = "CCCCCCCCC [nonane] + CC[N+](C)(CC)CCOC.O=S(=O)([N-]S(=O)(=O)C(F)(F)F)C(F)(F)F"
class_name = "0 (no)"

[[record]]
compound = "CCC(C)CC [3-methylpentane] + CC[N+](C)(CC)CCOC.O=S(=O)([N-]S(=O)(=O)C(F)(F)F)C(F)(F)F"
class_name = "0 (no)"

[[record]]
compound = "c1ccncc1 [pyridine] + CC[N+](C)(CC)CCOC.O=S(=O)([N-]S(=O)(=O)C(F)(F)F)C(F)(F)F"
class_name = "1 (yes)"

[[record]]
compound = "CC1CCCCC1 [methylcyclohexane] + CC[N+](C)(CC)CCOC.O=S(=O)([N-]S(=O)(=O)C(F)(F)F)C(F)(F)F"
class_name = "0 (no)"

[[record]]
compound = "C1CCCCCCC1 [cyclooctane] + CC[N+](C)(CC)CCOC.O=S(=O)([N-]S(=O)(=O)C(F)(F)F)C(F)(F)F"
class_name = "0 (no)"

[[record]]
compound = "C#CCCCC [1-hexyne] + CC[N+](C)(CC)CCOC.O=S(=O)([N-]S(=O)(=O)C(F)(F)F)C(F)(F)F"
class_name = "1 (yes)"


----------
experiment-notes: activity coefficient (dimensionless); of the first substance listed, at infinite dilution; xn = mol fraction of the nth substance listed
run-conditions: 358.15 K; 101.33 kPa; Liquid; Chromatography; x1 = 0
Listing: activity coefficient of selected molecules
metric: activity coefficient

[[record]]
molecule = "C1CCCCCC1 [cycloheptane] + CC[N+](C)(CC)CCOC.O=S(=O)([N-]S(=O)(=O)C(F)(F)F)C(F)(F)F"
metric = "activity coefficient"
readout_number = 11

[[record]]
molecule = "CC(C)CC(C)(C)C [2,2,4-trimethylpentane] + CC[N+](C)(CC)CCOC.O=S(=O)([N-]S(=O)(=O)C(F)(F)F)C(F)(F)F"
metric = "activity coefficient"
readout_number = 20

[[record]]
molecule = "CCCO [propan-1-ol] + CC[N+](C)(CC)CCOC.O=S(=O)([N-]S(=O)(=O)C(F)(F)F)C(F)(F)F"
metric = "activity coefficient"
readout_number = 1.59

[[record]]
molecule = "C#CCCCCC [1-heptyne] + CC[N+](C)(CC)CCOC.O=S(=O)([N-]S(=O)(=O)C(F)(F)F)C(F)(F)F"
metric = "activity coefficient"
readout_number = 4.29


----------
Listing: activity coefficient of selected molecules
experiment-notes: activity coefficient (dimensionless); of the first substance listed, at infinite dilution; xn = mol fraction of the nth substance listed
run-conditions: 328.15 K; 101.33 kPa; Liquid; Chromatography; x1 = 0
metric: activity coefficient

[[record]]
molecule = "C=CCCCCCCCC [1-decene] + CC[N+](C)(CC)CCOC.O=S(=O)([N-]S(=O)(=O)C(F)(F)F)C(F)(F)F"
result = 37.4

[[record]]
molecule = "C=CCCCCC [1-heptene] + CC[N+](C)(CC)CCOC.O=S(=O)([N-]S(=O)(=O)C(F)(F)F)C(F)(F)F"
result = 12.6

[[record]]
molecule = "CCCCCCC [heptane] + CC[N+](C)(CC)CCOC.O=S(=O)([N-]S(=O)(=O)C(F)(F)F)C(F)(F)F"
result = 24.4

[[record]]
molecule = "CCCC(C)=O [pentan-2-one] + CC[N+](C)(CC)CCOC.O=S(=O)([N-]S(=O)(=O)C(F)(F)F)C(F)(F)F"
result = 0.862

[[record]]
molecule = "CCCC(=O)CC [3-hexanone] + CC[N+](C)(CC)CCOC.O=S(=O)([N-]S(=O)(=O)C(F)(F)F)C(F)(F)F"
result = 1.22

[[record]]
molecule = "c1ccncc1 [pyridine] + CC[N+](C)(CC)CCOC.O=S(=O)([N-]S(=O)(=O)C(F)(F)F)C(F)(F)F"
result = 0.604

[[record]]
molecule = "C1CCCC1 [cyclopentane] + CC[N+](C)(CC)CCOC.O=S(=O)([N-]S(=O)(=O)C(F)(F)F)C(F)(F)F"
result = 6.85

[[record]]
molecule = "CCc1ccccc1 [ethylbenzene] + CC[N+](C)(CC)CCOC.O=S(=O)([N-]S(=O)(=O)C(F)(F)F)C(F)(F)F"
result = 2.25

[[record]]
molecule = "C#CCCCC [1-hexyne] + CC[N+](C)(CC)CCOC.O=S(=O)([N-]S(=O)(=O)C(F)(F)F)C(F)(F)F"
result = 3.11

[[record]]
molecule = "CCC[N+](=O)[O-] [1-nitropropane] + CC[N+](C)(CC)CCOC.O=S(=O)([N-]S(=O)(=O)C(F)(F)F)C(F)(F)F"
result = 0.778

[[record]]
molecule = "CCO [ethanol] + CC[N+](C)(CC)CCOC.O=S(=O)([N-]S(=O)(=O)C(F)(F)F)C(F)(F)F"
result = 1.62

[[record]]
molecule = "Cc1ccc(C)cc1 [1,4-dimethylbenzene] + CC[N+](C)(CC)CCOC.O=S(=O)([N-]S(=O)(=O)C(F)(F)F)C(F)(F)F"
result = 2.15

[[record]]
molecule = "C1COCCO1 [1,4-dioxane] + CC[N+](C)(CC)CCOC.O=S(=O)([N-]S(=O)(=O)C(F)(F)F)C(F)(F)F"
result = 0.679

[[record]]
molecule = "c1ccsc1 [thiophene] + CC[N+](C)(CC)CCOC.O=S(=O)([N-]S(=O)(=O)C(F)(F)F)C(F)(F)F"
result = 0.912

[[record]]
molecule = "C#CCCCCCC [1-octyne] + CC[N+](C)(CC)CCOC.O=S(=O)([N-]S(=O)(=O)C(F)(F)F)C(F)(F)F"
result = 6.36

